Target: LAT1 (Homo sapiens)
Construct: Using human bladder cancer cell strain T24 cells, in which LAT1 only was strongly expressed; endogenous in cells
Sequence (Q01650 whole entry): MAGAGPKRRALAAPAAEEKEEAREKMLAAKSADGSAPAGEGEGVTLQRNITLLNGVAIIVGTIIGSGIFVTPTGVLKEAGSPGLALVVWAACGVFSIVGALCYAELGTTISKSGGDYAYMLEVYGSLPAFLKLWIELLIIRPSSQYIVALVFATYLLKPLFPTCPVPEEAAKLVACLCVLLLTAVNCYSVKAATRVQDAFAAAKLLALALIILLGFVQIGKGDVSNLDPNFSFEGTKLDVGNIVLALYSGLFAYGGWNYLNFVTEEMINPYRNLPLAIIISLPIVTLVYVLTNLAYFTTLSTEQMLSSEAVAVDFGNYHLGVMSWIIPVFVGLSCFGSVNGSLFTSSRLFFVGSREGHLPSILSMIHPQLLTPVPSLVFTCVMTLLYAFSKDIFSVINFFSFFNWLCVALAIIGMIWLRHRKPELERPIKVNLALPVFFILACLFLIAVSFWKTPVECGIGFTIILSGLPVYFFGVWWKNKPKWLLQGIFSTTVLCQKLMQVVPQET
Sequence (P08195 102-630 partner): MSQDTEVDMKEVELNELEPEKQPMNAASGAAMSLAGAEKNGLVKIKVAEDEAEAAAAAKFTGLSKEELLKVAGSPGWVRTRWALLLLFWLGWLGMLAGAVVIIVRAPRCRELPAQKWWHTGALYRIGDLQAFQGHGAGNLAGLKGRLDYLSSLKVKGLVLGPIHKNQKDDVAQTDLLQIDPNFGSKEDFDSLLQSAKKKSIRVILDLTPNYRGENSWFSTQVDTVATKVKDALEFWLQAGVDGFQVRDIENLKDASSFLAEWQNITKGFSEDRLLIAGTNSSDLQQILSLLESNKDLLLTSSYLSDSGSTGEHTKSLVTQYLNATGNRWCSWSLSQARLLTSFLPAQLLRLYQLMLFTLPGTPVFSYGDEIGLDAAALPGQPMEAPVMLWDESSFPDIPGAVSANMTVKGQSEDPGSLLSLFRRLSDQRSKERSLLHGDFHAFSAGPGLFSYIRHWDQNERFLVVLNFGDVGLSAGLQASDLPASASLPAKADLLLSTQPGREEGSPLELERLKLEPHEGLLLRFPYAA
Test: LAT1 inhibiting activity: inhibition of 14C-L-leucine uptake in T24 cells
Details: 1 μM 14C-Leu, 1-minute uptake
resultType: IC50 (µM)
Give the value in µM but do not write µM after it.

Query block: Given Cc1c(-c2ccccc2)oc2c(COc3c(Cl)cc(C[C@H](N)C(=O)O)cc3Cl)cccc2c1=O [Example 39] , state its recorded IC50.
Result block: 0.23

Query block: Given N[C@@H](Cc1cccc(Oc2cccc(-c3cccnc3)c2)c1)C(=O)O [Example 100] , state its recorded IC50.
Result block: 0.22

Query block: Given N[C@@H](Cc1cccc(Oc2cccc(-c3cccc(Cl)c3)c2)c1)C(=O)O [Example 102] , state its recorded IC50.
Result block: 0.06

Query block: Given N[C@@H](Cc1cc(Cl)c(OCc2cccc3nc(-c4ccc(F)cc4)oc23)c(Cl)c1)C(=O)O [Example 32] , state its recorded IC50.
Result block: 0.24

Query block: Given N[C@@H](Cc1cc(Cl)c(OCc2cccc3nc(-c4ccc(Cl)cc4)oc23)c(Cl)c1)C(=O)O [Example 30] , state its recorded IC50.
Result block: 0.3

Query block: Given N[C@@H](Cc1cccc(Oc2ccc3cc(O)ccc3c2)c1)C(=O)O [Example 56] , state its recorded IC50.
Result block: 0.26

###

Provide the reported melting point of each item.
Counter-ions that a name gives are not always drawn.

Query block: Given `N[C@@H](Cc1cc(Cl)c(OCc2cccc3oc(-c4ccccc4)nc23)c(Cl)c1)C(=O)O` , state its recorded melting point.
Result block: 219 to 223 °C (dec.)

Query block: Given `N[C@@H](Cc1cc(Cl)c(OCCc2csc(-c3ccccc3)n2)c(Cl)c1)C(=O)O` , state its recorded melting point.
Result block: 205 to 210 °C (dec.)

Query block: Given `Cc1ccc(-c2nc3cccc(COc4c(Cl)cc(C[C@H](N)C(=O)O)cc4Cl)c3o2)cc1` , state its recorded melting point.
Result block: 221 to 231 °C (dec.)

Query block: Given `N[C@@H](Cc1cc(Cl)c(OCc2cccc3nc(-c4ccncc4)oc23)c(Cl)c1)C(=O)O` , state its recorded melting point.
Result block: 214 to 218 °C (dec.)

Query block: Given CN(C)c1ccc(-c2cccc(Oc3cccc(C[C@H](N)C(=O)O)c3)c2)cn1 (as salt: hydrochloride) [Example 98] , state its recorded melting point.
Result block: 223 to 228 °C (dec.)

Query block: Given `CN(C)c1ncc(-c2nc3cccc(COc4c(Cl)cc(C[C@H](N)C(=O)O)cc4Cl)c3o2)cn1` , state its recorded melting point.
Result block: 218 to 221 °C (dec.)

Query block: Given `N[C@@H](Cc1cccc(Oc2cccc(-c3ccc(Cl)cc3)c2)c1)C(=O)O` , state its recorded melting point.
Result block: 204 to 208 °C (dec.)

Query block: Given `N[C@@H](Cc1cccc(Oc2cccc(-c3ccncc3)c2)c1)C(=O)O` , state its recorded melting point.
Result block: 182 to 185 °C (dec.)

Query block: Given `N[C@@H](Cc1cc(Cl)c(OCCc2cccc3nc(-c4ccccc4)oc23)c(Cl)c1)C(=O)O` , state its recorded melting point.
Result block: 205 to 215 °C (dec.)

Query block: Given `N[C@@H](Cc1cccc(Oc2cccc(-c3ccccn3)c2)c1)C(=O)O` , state its recorded melting point.
Result block: 187 to 192 °C (dec.)

Query block: Given CN(C)c1ccc(-c2cccc(Oc3cccc(C[C@H](N)C(=O)O)c3)c2)cn1 [Example 97] , state its recorded melting point.
Result block: 214 to 218 °C (dec.)

Query block: Given `Cc1c(-c2ccccc2)oc2c(CNc3c(Cl)cc(C[C@H](N)C(=O)O)cc3Cl)cccc2c1=O` , state its recorded melting point.
Result block: 207 to 210 °C (dec.)

Query block: Given `CN(C)c1ncc(-c2cccc(Oc3cccc(C[C@H](N)C(=O)O)c3)c2)cn1` , state its recorded melting point.
Result block: 191 to 194 °C (dec.)

Query block: Given `N[C@@H](Cc1cccc(Oc2cccc(-c3cnc4ccccc4c3)c2)c1)C(=O)O` , state its recorded melting point.
Result block: 185 to 190 °C (dec.)

Query block: Given `CN(C)c1ccc(-c2nc3cccc(COc4c(Cl)cc(C[C@H](N)C(=O)O)cc4Cl)c3o2)cn1` , state its recorded melting point.
Result block: 233 to 236 °C (dec.)
